subject-of-test: hCA I (Homo sapiens, UniProt P00915)
Sequence (P00915 whole entry): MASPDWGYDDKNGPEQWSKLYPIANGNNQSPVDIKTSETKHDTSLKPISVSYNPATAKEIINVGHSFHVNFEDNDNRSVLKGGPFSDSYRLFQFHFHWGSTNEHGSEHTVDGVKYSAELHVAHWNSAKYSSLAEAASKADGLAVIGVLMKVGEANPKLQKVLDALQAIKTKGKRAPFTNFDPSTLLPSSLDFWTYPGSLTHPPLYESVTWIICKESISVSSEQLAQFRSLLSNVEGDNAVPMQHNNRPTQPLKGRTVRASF
pKi: −log10 of the molar value.
Decide by pKi: equal to or exceeding 6 means criterion met, less means criterion not met.

COc1ccc2nccc(NNC(=O)c3ccc(S(N)(=O)=O)cc3)c2c1	criterion met

Check the entry Cc1ccc2nccc(Nc3ccc(C)c(S(N)(=O)=O)c3)c2c1 [11e] : does pKi equal or exceed 6? criterion not met

Check the entry NS(=O)(=O)c1ccc(Nc2ccnc3ccc(Cl)cc23)cc1 [13c] : does pKi equal or exceed 6? criterion met

---

subject-of-test: hCA IX (Homo sapiens)
assay-method-text: stopped flow carbon dioxide hydrase assay, hCA IX
recorded-conditions: hCA IX over hCA II
property-measured: Selectivity ratio II/IX

NS(=O)(=O)c1ccccc1Nc1ccnc2ccc(Cl)cc12	1.3
COc1ccc2nccc(Nc3ccccc3S(N)(=O)=O)c2c1	1.3
COc1ccc2nccc(Nc3cccc(S(N)(=O)=O)c3)c2c1 [11b]	4.2
COc1ccc2nccc(NNC(=O)c3ccc(S(N)(=O)=O)cc3)c2c1	1.4
NS(=O)(=O)c1ccc(Nc2ccnc3ccc(Cl)cc23)cc1 [13c]	0.4

# query: Selectivity ratio II/IX | item NS(=O)(=O)c1cccc(Nc2ccnc3ccc(Cl)cc23)c1 [11c] | system: hCA IX (Homo sapiens) 18.4

# query: Selectivity ratio II/IX | item Cc1ccc2nccc(Nc3cccc(S(N)(=O)=O)c3)c2c1 [11a] | system: hCA IX (Homo sapiens) 3.8

# query: Selectivity ratio II/IX | item COc1ccc2nccc(Nc3ccc(C)c(S(N)(=O)=O)c3)c2c1 [11f] | system: hCA IX (Homo sapiens) 1.2

# query: Selectivity ratio II/IX | item "Cc1ccc2nccc(Nc3ccccc3S(N)(=O)=O)c2c1" | system: hCA IX (Homo sapiens) 2.2

# query: Selectivity ratio II/IX | item Cc1ccc2nccc(Nc3ccc(C)c(S(N)(=O)=O)c3)c2c1 [11e] | system: hCA IX (Homo sapiens) 14.5
